# experimental-target: Bcl-xL (Homo sapiens)
# Construct: Measured levels of Bcl-xL protein of HCT116 cells treated with the tested compounds; host or cells: HCT116
# assay-overview: HCT116 Bcl-xL degradation, capillary-based immunoassay (WES)
# Assay type: cell-based
# particulars: HCT116, 24 h, 9-point serial dilution
Collected DC50 values appear next to each entry.

- compound: "Cc1cc(N(CCCCN(C)C(=O)CCCCCCCCCCCCC(=O)N[C@H](C(=O)N2C[C@H](O)C[C@H]2C(=O)N[C@@H](C)c2ccc(-c3scnc3C)cc2)C(C)(C)C)c2ccc(-c3cnn(CC45CC6(C)CC(C)(C4)CC(OCCN(C)C)(C6)C5)c3C)c(C(=O)O)n2)nnc1Nc1nc2ccccc2s1 [Example 116]"
  experimental-target: "Bcl-xL (Homo sapiens)"
  DC50: "3.6 nM"
- compound: "Cc1ncsc1-c1ccc(CNC(=O)[C@@H]2CC(O)CN2C(=O)C(NC(=O)CCCCCCC(=O)N2CCN(CCOC34CC5(C)CC(C)(CC(Cn6ncc(-c7ccc(N8CCCc9c8nnc(Nc8nc%10ccccc%10s8)c9C)nc7C(=O)O)c6C)(C5)C3)C4)CC2)C(C)(C)C)cc1 (stereo in doubt) [Example 24]"
  experimental-target: "Bcl-xL (Homo sapiens)"
  DC50: "> 316 nM"
- compound: "Cc1ncsc1-c1ccc([C@H](C)NC(=O)C2CC(O)CN2C(=O)C(NC(=O)CCCCCCCCCCCN2CCN(CC#Cc3ccc(OCCCc4sc(N5CCCc6c5nnc(Nc5nc7ccccc7s5)c6C)nc4C(=O)O)c(F)c3)CC2)C(C)(C)C)cc1 (stereo in doubt) [Example 31]"
  experimental-target: "Bcl-xL (Homo sapiens)"
  DC50: "1.22 nM"

Please report the recorded DC50 for Cc1c(Nc2nc3ccccc3s2)nnc2c1CCCN2c1ccc(-c2cnn(CC34CC5(C)CC(C)(C3)CC(OCCN(C)CCCCCCOc3cccc6c3C(=O)N(C3CCC(=O)NC3=O)C6=O)(C5)C4)c2C)c(C(=O)O)n1 (stereo not shown) [Example 141] .
> 316 nM

###

Let's look at some compounds and their measured remaining activity at 0.1 µM.
# experimental-target: Bcl-xL (Homo sapiens, UniProt Q07817)
# Construct: Measured levels of Bcl-xL protein of HCT116 cells treated with the tested compounds; host or cells: HCT116
# Sequence (Q07817 whole entry): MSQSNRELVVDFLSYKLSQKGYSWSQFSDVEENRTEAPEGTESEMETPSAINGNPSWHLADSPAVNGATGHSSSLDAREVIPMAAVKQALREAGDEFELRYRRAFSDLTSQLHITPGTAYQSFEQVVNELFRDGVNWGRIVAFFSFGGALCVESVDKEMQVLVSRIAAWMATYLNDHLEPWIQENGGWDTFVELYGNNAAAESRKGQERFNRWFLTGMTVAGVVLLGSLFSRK
# assay-overview: HCT116 Bcl-xL degradation, capillary-based immunoassay (WES)
# Type: cell-based
# particulars: HCT-116; HCT116, 100 nM, 24 h; % of untreated cells
Please state the figure in %; there is no need to write the unit.

- substance-smiles: "Cc1ncsc1-c1ccc([C@H](C)NC(=O)[C@@H]2C[C@@H](O)CN2C(=O)[C@@H](NC(=O)CCCCCCN(C)CCOC23CC4(C)CC(C)(CC(Cn5ncc(-c6ccc(N7CCCc8c7nnc(Nc7nc9ccccc9s7)c8C)nc6C(=O)O)c5C)(C4)C2)C3)C(C)(C)C)cc1"
  reported: 17

# get_value(readout='remaining activity at 0.1 µM', item= Cc1ncsc1-c1ccc(CNC(=O)[C@@H]2C[C@@H](O)CN2C(=O)[C@@H](NC(=O)CCC(=O)N2CCN(CC#Cc3ccc(OCCCc4sc(N5CCCc6c5nnc(Nc5nc7ccccc7s5)c6C)nc4C(=O)O)c(F)c3)CC2)C(C)(C)C)cc1 )
35

###

# remaining activity at 0.01 µM values compiled below
# experimental-target: Bcl-xL (Homo sapiens, UniProt Q07817)
# Construct: Measured levels of Bcl-xL protein of HCT116 cells treated with the tested compounds; host or cells: HCT116
# assay-overview: HCT116 Bcl-xL degradation, capillary-based immunoassay (WES)
# Format: cell-based
# particulars: HCT-116; HCT116, 10 nM, 24 h; % of untreated cells
# Method: HCT116 cells were purchased from ATCC and cultivated in RPMI 1640 supplemented with 10% heat inactivated fetal bovine serum, penicillin (100 IU/mi), streptomycin (100 μg/ml) and L-glutamine (2 mM). […] Protein concentration in the supernatants was determined using the Pierce BCA protein assay kit (Thermo Fisher Scientific). […] Signals were detected with an HRP-conjugated secondary anti-rabbit antibody (#042-206, Proteinsimple) and were quantified using Compass software (version 4.0, Proteinsimple). […]
Provide the reading as a plain figure in %.

- molecule: "CNCC#Cc1ccc(OCCCc2sc(N(CCCc3cn(CCOCCOCCOCCNC(=O)COc4cccc5c4C(=O)N(C4CCC(=O)NC4=O)C5=O)nn3)c3cc(C)c(Nc4nc5ccccc5s4)nn3)nc2C(=O)O)c(F)c1 (centres unmarked)"
  experimental-target: "Bcl-xL (Homo sapiens, UniProt Q07817)"
  reported: 60

Form entry - test system: Bcl-xL (Homo sapiens, UniProt Q07817); read-out: remaining activity at 0.01 µM; molecule: Cc1ncsc1-c1ccc([C@H](C)NC(=O)[C@@H]2C[C@@H](O)CN2C(=O)[C@@H](NC(=O)CCCCCCCCCCCN(C)CCOC23CC4(C)CC(C)(CC(Cn5ncc(-c6ccc(N7CCCc8c7nnc(Nc7nc9ccccc9s7)c8C)nc6C(=O)O)c5C)(C4)C2)C3)C(C)(C)C)cc1
26

###

# experimental-target: HiBiT-tagged BCL-xL (Homo sapiens, UniProt Q07817)
# Construct: expressed in transfected cells; host or cells: NCI-H1650 (ATCC No. CRL-5883), engineered HiBiT cell line
# Sequence (Q07817 whole entry): as above
# assay-overview: NCI-H1650 BCL-xL protein levels, Nano-Glo HiBiT Lytic Detection
# Format: cell-based
# particulars: NCI-H1650 expressing HiBiT-tagged BCL-xL, overnight incubation, read-out: Bcl-xl HIBIT NCIH1650 DC50
Catalogue of DC50 readings, one per entry.
A number alone suffices; assume nM.

- substance-smiles: "Cc1cc(N(CCCCN(C)C(=O)CCCCCCCCCCCCSC(C)(C)[C@H](NC(=O)C2(F)CC2)C(=O)N2C[C@H](O)C[C@H]2C(=O)NCc2ccc(-c3scnc3C)cc2)c2ccc(-c3cnn(CC45CC6(C)CC(C)(C4)CC(OCCN(C)C)(C6)C5)c3C)c(C(=O)O)n2)nnc1Nc1nc2ccccc2s1"
  readout-units: "nM"
  DC50: 33
- substance-smiles: "Cc1ncsc1-c1ccc([C@H](C)NC(=O)[C@@H]2C[C@@H](O)CN2C(=O)[C@@H](NC(=O)C[C@H]2CC[C@@H](NC(=O)c3nc(N4CCCc5c4nnc(Nc4nc6ccccc6s4)c5C)ccc3-c3cnn(CC45CC6(C)CC(C)(C4)CC(OCCN4CCCC4)(C6)C5)c3C)CC2)C(C)(C)C)cc1"
  readout-units: "nM"
  DC50: 6

Turning now to a further record.
Give the measured DC50 of Cc1cc(N(CCCCN(C)C(=O)CCCCCCCCCC(=O)N[C@H](C(=O)N2C[C@H](O)C[C@H]2C(=O)N[C@@H](C)c2ccc(-c3scnc3C)cc2)C(C)(C)C)c2ccc(-c3cnn(CC45CC6(C)CC(C)(C4)CC(OCCN(C)C)(C6)C5)c3C)c(C(=O)O)n2)nnc1Nc1nc2ccccc2s1 .
1

###

# experimental-target: Bcl-xL (Homo sapiens)
# Construct: Measured levels of Bcl-xL protein of HCT116 cells treated with the tested compounds; host or cells: HCT116
# assay-overview: HCT116 Bcl-xL degradation, capillary-based immunoassay (WES)
# Assay type: cell-based
# particulars: HCT116, 24 h, 9-point serial dilution
recorded-endpoint: DC50 (nM)
Use nM as the unit, but write only the number.

- compound: "Cc1ncsc1-c1ccc([C@H](C)NC(=O)[C@@H]2C[C@@H](O)CN2C(=O)[C@@H](NC(=O)CCCCCCCCCCCCCCCN(C)CCOC23CC4(C)CC(C)(CC(Cn5ncc(-c6ccc(N7CCCc8c7nnc(Nc7nc9ccccc9s7)c8C)nc6C(=O)O)c5C)(C4)C2)C3)C(C)(C)C)cc1"
  DC50 (nM): 0.329
- compound: "Cc1cc(N(CCCCN(C)C(=O)CCCCCCCCNc2cccc3c2C(=O)N(C2CCC(=O)NC2=O)C3=O)c2ccc(-c3cnn(CC45CC6(C)CC(C)(C4)CC(OCCN(C)C)(C6)C5)c3C)c(C(=O)O)n2)nnc1Nc1nc2ccccc2s1 (stereo not shown)"
  DC50 (nM): 0.407

Item Cc1ncsc1-c1ccc([C@H](C)NC(=O)C2C[C@@H](O)CN2C(=O)C(NC(=O)CCCCCC(=O)N2CCN(CC#Cc3ccc(OCCCc4sc(N5CCCc6c5nnc(Nc5nc7ccccc7s5)c6C)nc4C(=O)O)c(F)c3)CC2)C(C)(C)C)cc1 (stereo in doubt) has what recorded DC50?
0.488

###

# experimental-target: HiBiT-tagged BCL-xL (Homo sapiens, UniProt Q07817)
# Construct: expressed in transfected cells; host or cells: NCI-H1650 (ATCC No. CRL-5883), engineered HiBiT cell line
# assay-overview: NCI-H1650 BCL-xL protein levels, Nano-Glo HiBiT Lytic Detection
# Assay type: cell-based
# particulars: NCI-H1650 expressing HiBiT-tagged BCL-xL, overnight incubation, read-out: Bcl-xl HIBIT NCIH1650 DC50
recorded-endpoint: DC50

- molecule: "Cc1ncsc1-c1ccc([C@H](C)NC(=O)[C@@H]2C[C@@H](O)CN2C(=O)[C@@H](NC(=O)CCOC2CCN(C(=O)c3nc(N4CCCc5c4nnc(Nc4nc6ccccc6s4)c5C)ccc3-c3cnn(CC45CC6(C)CC(C)(C4)CC(OCCN4CCCC4)(C6)C5)c3C)CC2)C(C)(C)C)cc1 [Example 167]"
  reported: "2 nM"

What value of measured DC50 is listed for Cc1ncsc1-c1ccc([C@H](C)NC(=O)C2C[C@@H](O)CN2C(=O)C(NC(=O)CCCCCC(=O)N2CCN(CC#Cc3ccc(OCCCc4sc(N5CCCc6c5nnc(Nc5nc7ccccc7s5)c6C)nc4C(=O)O)c(F)c3)CC2)C(C)(C)C)cc1 (stereo in doubt) [Example 17] ?
> 1670 nM

Given the molecule Cc1ncsc1-c1ccc(CNC(=O)[C@@H]2C[C@@H](O)CN2C(=O)[C@@H](NC(=O)C2(F)CC2)C(C)(C)C)c(OCCCCCCCCCCCCCCCCN(C)CCOC23CC4(C)CC(C)(CC(Cn5ncc(-c6ccc(N7CCCc8c7nnc(Nc7nc9ccccc9s7)c8C)nc6C(=O)O)c5C)(C4)C2)C3)c1 [Example 77] , what is its reported DC50?
> 1670 nM

Can you look up the measured DC50 of Cc1ncsc1-c1ccc(CNC(=O)C2C[C@@H](O)CN2C(=O)C(NC(=O)CCCCCC(=O)N2CCN(CC#Cc3ccc(OCCCc4sc(N5CCCc6c5nnc(Nc5nc7ccccc7s5)c6C)nc4C(=O)O)c(F)c3)CC2)C(C)(C)C)cc1 (stereo in doubt) [Example 15] for me?
> 1670 nM
